Source of measurements: paper PMC9250534

# TARGET SYSTEM: MDM2 (Homo sapiens)
# TEST SUMMARY: MDM2 binding screen: displacement of fluorescent p53 peptide probe FP53 (fluorescence polarization)
# MEASUREMENT PARAMETERS: 10 µM macrocycle concentration; crude acylated macrocycle (scaffold Mpa-AA1-AA2-AA3 x carboxylic acid); p53-based fluorescent peptide, human MDM2
Numbered stars: 1 amine (or outer) side, 2 acyl side, 3 side chain; on linkers, the order of the positions; unused ones are H or OH. Bridge positions count the residues as written; N and C are the ends. Square brackets hold non-standard residues; d marks the D form. Peptide text beside a SMILES is read from it. * marks the point of attachment. Benzoyl(3-CF3) = O=C(c1cccc(C(F)(F)F)c1)*; X14 = O=C(C1(c2ccccc2)CCCCC1)*; Cysteamide = C(CS[*:3])N[*:1]; X12 = Cc1nc2ccccn2c1C(=O)*; Dap = NC[C@H](N)C(=O)O; Mpa = O=C(O)CCS
RESULT TYPE: fraction fluorescent probe displaced
Give bare numbers.

Would you please look over these solved cases?
CC(=O)NC[C@@H]1NC(=O)[C@@H]2CCCN2C(=O)CCSSCCNC(=O)[C@H](Cc2ccccc2)NC1=O [X-B1-D3-F + A7] ([Mpa]P[Dap](Ac)F-Cysteamide; disulfide 1-C)
0.02548
O=C1NCCSSCCC(=O)N2CCC[C@H]2C(=O)N[C@@H](CNC(=O)C2(c3ccccc3)CCCCC2)C(=O)N[C@H]1Cc1ccccc1 [X-B1-D3-F + A98] ([Mpa]P[Dap](X14)F-Cysteamide; disulfide 1-C)
0.6432
Cc1nc2ccccn2c1C(=O)NC[C@@H]1NC(=O)[C@@H]2CCCN2C(=O)CCSSCCNC(=O)[C@H](Cc2c[nH]c3ccccc23)NC1=O [X-B1-D3-W + A61] ([Mpa]P[Dap](X12)W-Cysteamide; disulfide 1-C)
0.006636

Please examine the following record next.
Task: # query: fraction fluorescent probe displaced | item O=C(NC[C@@H]1NC(=O)[C@@H]2CCCN2C(=O)CCSSCCNC(=O)[C@H](Cc2ccccc2)NC1=O)c1cccc(C(F)(F)F)c1 [X-B1-D3-F + A18] ([Mpa]P[Dap](Benzoyl(3-CF3))F-Cysteamide; disulfide 1-C) | system: MDM2 (Homo sapiens)
Result: 0.09317

* * *

# TARGET SYSTEM: MDM2 (Homo sapiens, UniProt Q00987)
# Sequence (Q00987 whole entry): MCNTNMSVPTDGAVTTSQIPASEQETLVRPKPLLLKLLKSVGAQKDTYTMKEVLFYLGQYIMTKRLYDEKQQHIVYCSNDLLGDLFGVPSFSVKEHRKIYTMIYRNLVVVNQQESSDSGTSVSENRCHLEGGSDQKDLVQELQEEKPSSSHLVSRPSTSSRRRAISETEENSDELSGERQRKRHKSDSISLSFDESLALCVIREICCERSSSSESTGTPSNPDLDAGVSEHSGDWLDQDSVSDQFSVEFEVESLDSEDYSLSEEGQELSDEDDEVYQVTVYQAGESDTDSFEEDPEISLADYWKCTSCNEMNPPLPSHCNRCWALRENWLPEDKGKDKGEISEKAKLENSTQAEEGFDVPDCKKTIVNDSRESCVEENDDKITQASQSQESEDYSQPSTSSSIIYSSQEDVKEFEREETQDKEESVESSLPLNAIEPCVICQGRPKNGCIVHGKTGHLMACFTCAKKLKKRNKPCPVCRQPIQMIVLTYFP
# TEST SUMMARY: MDM2 binding screen: displacement of fluorescent p53 peptide probe FP53 (fluorescence polarization)
# MEASUREMENT PARAMETERS: Acid 14; replicate; crude macrocycle reactions
# Method: We screened Library 2 in 384-microwell plates by dispensing the target protein MDM2 and reporter peptide into the wells containing the macrocycle reactions. The products were screened for displacement of a p53-based fluorescent peptide from human MDM2. […] For each macrocycle, the MDM2 binding was measured once. One fluorescence anisotropy reading was taken with a Tecan Infinite F200 Pro fluorescence plate reader (excitation at 485 nm, emission at 535 nm) at 25 °C. […]
Numbered stars: 1 amine (or outer) side, 2 acyl side, 3 side chain; on linkers, the order of the positions; unused ones are H or OH. Bridge positions count the residues as written; N and C are the ends. Square brackets hold non-standard residues; d marks the D form. Peptide text beside a SMILES is read from it. ξ: configuration not given here. ξPro(4-NHCO(5-Cl-2-thienyl)) = O=C(NC1CNC(C(=O)O)C1)c1ccc(Cl)s1; Cysteamide = C(CS[*:3])N[*:1]; Mpa = O=C(O)CCS
Hi there, I'd appreciate the recorded fraction fluorescent probe displaced, Replicate for every entry that follows.
Answers are plain numbers.

Report fraction fluorescent probe displaced, Replicate for every entry below.
1. O=C1CCSSCCNC(=O)c2cccc(c2)CNC(=O)[C@H](CNC(=O)c2ccc(Cl)s2)NC(=O)[C@H](Cc2ccccc2)N1
2. O=C(NC1CC2C(=O)N3CCCC3C(=O)NC(Cc3c[nH]c4ccccc34)C(=O)NCCSSCCC(=O)N2C1)c1ccc(Cl)s1 (centres unmarked) [X D5 B1 W Acid 14] ([Mpa][ξPro(4-NHCO(5-Cl-2-thienyl))]PW-Cysteamide; disulfide 1-C; configuration not given here)
3. O=C(NC[C@@H]1NC(=O)[C@H](Cc2c[nH]c3ccccc23)NC(=O)[C@H]2CCCN(C2)C(=O)CCSSCCNC1=O)c1ccc(Cl)s1
4. O=C1CCSSCCNC(=O)C2CN(C(=O)c3ccc(Cl)s3)CCN2C(=O)CCNC(=O)C(Cc2c[nH]c3ccccc23)N1 (mixture of isomers)
5. O=C1CCNC(=O)C(CNC(=O)c2ccc(Cl)s2)NC(=O)C(Cc2ccccc2)NC(=O)CCSSCCN1 (centres unmarked)

Result:
1: -0.03; 2: 0.0465; 3: 0.10; 4: 0.17; 5: 0.0465

* * *

Hi there, I'd appreciate the recorded fraction fluorescent probe displaced, Screen for every entry that follows.
# TARGET SYSTEM: MDM2 (Homo sapiens, UniProt Q00987)
# TEST SUMMARY: MDM2 binding screen: displacement of fluorescent p53 peptide probe FP53 (fluorescence polarization)
# MEASUREMENT PARAMETERS: Acid 25; initial screen; crude macrocycle reactions
# Procedure: We screened Library 2 in 384-microwell plates by dispensing the target protein MDM2 and reporter peptide into the wells containing the macrocycle reactions. The products were screened for displacement of a p53-based fluorescent peptide from human MDM2. […] For each macrocycle, the MDM2 binding was measured once. One fluorescence anisotropy reading was taken with a Tecan Infinite F200 Pro fluorescence plate reader (excitation at 485 nm, emission at 535 nm) at 25 °C. […]
Numbered stars: 1 amine (or outer) side, 2 acyl side, 3 side chain; on linkers, the order of the positions; unused ones are H or OH. Bridge positions count the residues as written; N and C are the ends. Square brackets hold non-standard residues; d marks the D form. Peptide text beside a SMILES is read from it. * marks the point of attachment. ξ: configuration not given here. ξPro(4ξ-NHCOC6H4-4-Cl) = O=C(NC1CNC(C(=O)O)C1)c1ccc(Cl)cc1; Benzoyl(4-Cl) = O=C(c1ccc(Cl)cc1)*; Cysteamide = C(CS[*:3])N[*:1]; Api = NC1(C(=O)O)CCNCC1; Mpa = O=C(O)CCS
Numbers only.

Would you please look over these solved cases?
O=C1CCSSCCNC(=O)[C@H](Cc2ccccc2)NC(=O)[C@@H]2CCCN2C(=O)C2(CCN(C(=O)c3ccc(Cl)cc3)CC2)N1 [X D6 B1 F Acid 25] ([Mpa][Api](Benzoyl(4-Cl))PF-Cysteamide; disulfide 1-C)
0.0569
O=C1CCNC(=O)C2CC(NC(=O)c3ccc(Cl)cc3)CN2C(=O)CCSSCCNC(=O)C(Cc2c[nH]c3ccccc23)N1 (centres unmarked)
0.15
O=C(NC1CC2C(=O)N3CCCC3C(=O)NC(Cc3c[nH]c4ccccc34)C(=O)NCCSSCCC(=O)N2C1)c1ccc(Cl)cc1 (centres unmarked) [X D5 B1 W Acid 25] ([Mpa][ξPro(4ξ-NHCOC6H4-4-Cl)]PW-Cysteamide; disulfide 1-C; configuration not given here)
0.25
O=C1CCNC(=O)[C@H](Cc2c[nH]c3ccccc23)NC(=O)CCSSCCNC(=O)[C@H](CNC(=O)c2ccc(Cl)cc2)N1
0.28

Please examine the following record next.
Task: Name the reported fraction fluorescent probe displaced, Screen value associated with the compound O=C(NC1CC2C(=O)NCCSSCCC(=O)N3CCCC3C(=O)NC(Cc3c[nH]c4ccccc34)C(=O)N2C1)c1ccc(Cl)cc1 (centres unmarked) [X B1 W D5 Acid 25] ([Mpa]PW[ξPro(4ξ-NHCOC6H4-4-Cl)]-Cysteamide; disulfide 1-C; configuration not given here)
Result: 0.15

* * *

# TARGET SYSTEM: thrombin (Homo sapiens, UniProt P00734)
# Construct: consists of two polypeptide chains of 36 (light chain) and 259 amino acid
# TEST SUMMARY: Thrombin inhibition screen of crude macrocycle reactions (residual thrombin activity, fluorogenic substrate Z-Gly-Gly-Arg-AMC)
# Format: biochemical
# MEASUREMENT PARAMETERS: 10 µM macrocycle concentration; crude reactions, Library 1a-l; scaffold AA1-AA2-AA3 combined with 1-16 or '-'
Numbered stars: 1 amine (or outer) side, 2 acyl side, 3 side chain; on linkers, the order of the positions; unused ones are H or OH. Bridge positions count the residues as written; N and C are the ends. Square brackets hold non-standard residues; d marks the D form. Peptide text beside a SMILES is read from it. * marks the point of attachment. Cysteamide = C(CS[*:3])N[*:1]; X3 = O=C(Cc1c[nH]c2ccccc12)*; Orn = NCCC[C@H](N)C(=O)O; Bz = O=C(c1ccccc1)*; Mpa = O=C(O)CCS
Hi there, I'd appreciate the recorded percent residual thrombin activity for every entry that follows.
Give bare numbers, in %.

Would you please look over these solved cases?
CC[C@H](C)[C@@H]1NC(=O)[C@H](CCCNC(=O)c2ccco2)NC(=O)c2cccc(c2)CNC(=O)CCSSCCNC1=O [B5-D2-I/16]
105.125
Cc1nnsc1C(=O)NCCC[C@@H]1NC(=O)CCSSCCNC(=O)[C@H](Cc2ccc(O)cc2)NC(=O)c2cccc(c2)CNC1=O [D2-B5-Y/15]
91.9104
O=C1CCSSCCNC(=O)[C@@H](Cc2ccccc2)NC(=O)[C@H]2CCCN(C2)C(=O)[C@H](CCCNC(=O)c2ccc(Cl)s2)N1 [D2-B4-f/14]
82.899
O=C(NCCCC[C@@H]1NC(=O)[C@@H](Cc2c[nH]c3ccccc23)NC(=O)[C@H]2CCCN(C2)C(=O)CCSSCCNC1=O)c1ccc(Cl)s1 [B4-w-D1/14]
105.59
NCCC[C@@H]1NC(=O)CCSSCCNC(=O)[C@H](Cc2ccc(O)cc2)NC(=O)c2cccc(c2)CNC1=O [D2-B5-Y/-]
110.083
O=C1CCSSCCNC(=O)[C@H](Cc2ccc(O)cc2)NC(=O)[C@H](CCCNC(=O)c2c[nH]c(=O)[nH]c2=O)NC(=O)C2(CC2)CN1 [B6-D2-Y/11]
102.523
COc1ccc(C(=O)NCCCC[C@@H]2NC(=O)c3ccc(cc3)CNC(=O)CCSSCCNC(=O)[C@H](Cc3ccc(O)cc3)NC2=O)cn1 [B3-D1-Y/10]
99.2373
NC(=O)CC[C@@H]1NC(=O)[C@@H]2CCCN2C(=O)CCSSCCNC(=O)[C@H](CCCNC(=O)Cc2c[nH]c3ccccc23)NC1=O [B1-Q-D2/12] ([Mpa]PQ[Orn](X3)-Cysteamide; disulfide 1-C)
104.653

Report percent residual thrombin activity for every entry below.
1. O=C1CCSSCCNC(=O)[C@@H]2CCCN2C(=O)[C@H](CCCCNC(=O)c2ccccc2)NC(=O)[C@H](Cc2c[nH]c3ccccc23)N1 [W-D1-B1/1] ([Mpa]WK(Bz)P-Cysteamide; disulfide 1-C)
2. O=C(Cc1c[nH]c2ccccc12)NCCC[C@@H]1NC(=O)CCSSCCNC(=O)[C@H](Cc2ccc(O)cc2)NC(=O)c2cccc(c2)CNC1=O [D2-B5-Y/12]
3. O=C1CCSSCCNC(=O)[C@H](CCCCNC(=O)c2ccco2)NC(=O)[C@H](Cc2ccc(O)cc2)NC(=O)C2(CC2)CN1 [B6-Y-D1/16]

Result:
[101.199, 99.266, 103.228]

Task: Name the reported percent residual thrombin activity value associated with the compound C[C@H]1NC(=O)CCSSCCNC(=O)[C@H](CCCCN)NC(=O)CCNC1=O [a-B2-D1/-]
Result: 105.008
